Reference source: PubChem BioAssay (NCI)

System: HL-60(TB) leukemia
Experiment: NCI tumour cell line growth inhibition, 48 h; in the data active = GI50 below about 0.43 µM; inactive = the rest
Choose the fitting class; nothing outside active, inactive is accepted.

These recorded examples may help you get a feel for the data.
compound=O=[Se](=O)c1ccccc1.O=[Se](=O)c1ccccc1.[Cu] category_label=inactive
compound=COc1ccc(-c2ccc(-c3ccc(-c4ccc(C(=N)N)cc4)s3)s2)cc1OC category_label=inactive
compound=COc1ccc2c(c1)C(=O)/C(=C/c1ncc([N+](=O)[O-])n1C)O2 category_label=active
compound=O=C(Nc1ccc(Cl)cc1)c1cc(-c2ccc(Cl)cc2)c2sc(=O)[nH]c2n1 category_label=inactive
compound=NS(=O)(=O)c1cccc(N=Cc2c(O)[nH]c3ccccc23)c1 category_label=inactive

Which outcome did this test record for the compound O=C(Cc1cccc(OC(F)(F)F)c1)Nc1ccc(CCCCc2nnc(NC(=O)Cc3ccccn3)s2)nn1 ?
inactive

Which outcome did this test record for the compound COc1ccc(C(=O)c2cc3c(OC)c(OC)c(OC)cc3[nH]2)cc1 ?
inactive

Which outcome did this test record for the compound COc1ccc2nc3cc(Cl)ccc3c(NCCCNCCC(C)O)c2c1 (stereo not given) ?
inactive

Which outcome did this test record for the compound CCN1c2ccccc2C(Cl)(c2ccc(N(C)C)cc2)c2ccccc21 ?
inactive

Which outcome did this test record for the compound CCN(CCCl)CCCNc1c2ccccc2nc2ccc(OC)cc12 ?
inactive

----------
Tested on: SW-620 colon
Assay: NCI tumour cell line growth inhibition, 48 h; in the data active means GI50 below about 0.43 µM; inactive means the rest
Choose the fitting class; nothing outside Y for active, N for inactive is accepted.

Which outcome did this test record for the molecule COc1ccccc1/C=N\N=C(N/N=C/c1ccccc1OC)N/N=C/c1ccccc1OC ?
N

Which outcome did this test record for the molecule O=Nc1ccc2ccccc2c1O ?
N

Which outcome did this test record for the molecule NS(=O)(=O)c1cccc(N=Cc2c(O)[nH]c3ccccc23)c1 ?
N

----------
Parameter TGI: see the listing below.
Tested on: A549 NSCLC
Assay: NCI tumour cell line growth inhibition, 48 h

compound=COc1cccc(/C=C/c2cnc3ccccc3n2)c1OC assay_value="> 100 µM"
compound=COc1ccc2c(c1)n([O-])c(C#N)c(N1CCN(c3ccc([N+](=O)[O-])cc3)CC1)[n+]2=O assay_value="> 100 µM"
compound="Cc1ccc(C(C2C(=O)N(C)C(=O)N(C)C2=O)C(F)(F)C(=O)N(C)C)cc1 (stereo unspecified)" assay_value="> 100 µM"
compound=O=c1[nH]cnc2[nH]ncc12 assay_value="> 5000 µM"
compound=COc1cc(-c2nc3sc4c(c3c(=O)[nH]2)CCCCCC4)cc(OC)c1OC assay_value="> 33.2 µM"
compound=Cc1c(C)[n+](=O)c(C)c(C)n1[O-] assay_value="> 100 µM"
compound=Cc1cc(Cc2cc(C)cc(C(C)(C)C)c2O)c(O)c(C(C)(C)C)c1 assay_value="13.2 µM"
compound=COc1ccc(/C=C\c2cc(OC)c(OC)c(OC)c2)cc1OC(=O)CCC(=O)O assay_value="> 100 µM"

Lab note: C#Cc1c(C(N)=O)ncn1C1OC(COP(=O)(OCc2ccc([N+](=O)[O-])o2)N(C)CCCCCl)C(O)C1O (stereo unspecified) gave TGI of > 100 µM

Lab note: COc1cccc2c1C(=O)c1c(O)c3c(c(O)c1C2=O)C[C@@](O)(C(=O)CO)C[C@@H]3OC1C[C@H](N)[C@H](O)[C@H](C)O1 (stereo partly specified) gave TGI of > 50 µM

Lab note: CSc1c(C#N)c(=O)[nH]c2n[nH]c(C)c12 gave TGI of > 100 µM

Lab note: C=C1C(=O)O[C@H]2[C@H]1CC/C(COC(=O)CSCC(=O)OC/C1=C/CC[C@@]3(C)O[C@H]3[C@H]3OC(=O)C(=C)[C@@H]3CC1)=C\CC[C@@]1(C)O[C@@H]21 gave TGI of 18.2 µM

Lab note: CN(C)CCSC(=Nc1ccccc1)N1CCCCC1 gave TGI of > 100 µM

Lab note: Oc1[nH]c2ccccc2c1N=Nc1nc(-c2ccc(Cl)c(Cl)c2)cs1 gave TGI of > 100 µM

Lab note: C=CC1CC12C(=O)C1OC2(C)C2C(=O)c3c(O)ccc(O)c3C(=O)C12 (stereo unspecified) gave TGI of 27.2 µM
